Reference source: the EternaBench riboswitch data

system: MS2 coat protein; assay: apparent Kd, MS2 coat protein; higher = weaker binding; RNA-MaP array; FMN 200 µM where present; details: ligand present: flavin mononucleotide; designed as: ON switch for flavin mononucleotide
Answer f if apparent Kd is under 20 nM, and t if it is 20 nM or more.

chain_sequence=GUCAUUAAACAGAAGGUGUUGUACAUGAGGAUCACCCAUGUUUAUCUAAUUAAAUUUGUAAUUAACAAGGAUAUGUACUAAUCG category=t
chain_sequence=UUGAGGUGCAAGAAGGAUCACAUGAGGAUCACCCAUGUGAUAUAAAGUCUCGAGAUUUUAUAUCGAUAGGAUAUUGCACCGAAC category=f
chain_sequence=UUUUACUAGUAAGGAUAUAUUAGCGAUUAGCUUGUAGAAGGUACAGUCUUAUGUAUAACAUGUUAACAUGAGGAUCACCCAUGU category=t
chain_sequence=CGCUGCCACGCAGGAUAUGCAUUGGAUUACAAUGCAGAAGGGCGAUUACAUGAGGAUCACCCAUGUGUUGGCAGUGAAGAAGAG category=t
chain_sequence=GGGUGAGACGAGAAGGGAUUUUCACAUGAGGAUCACCCAUGUCGAGUAGUCAGGAUAUCGGGCCAUGAUUACCCUAUAGAAGAC category=t
chain_sequence=AGUUAAUAUCGAGGAUAUCUCAUGAAUACAUGAGGAUCACCCAUGUGAAUGGGAGAAGGCGAUAUUAACAGCAUGUUACAUGCA category=f
chain_sequence=GGGUACAUCGGAGGAUAUCAUGUAAAUACAUGAGGAUCACCCAUGUCGAUGGAGACAUCGGAGGUUGAGAAGGCCGAUGUACCG category=f
chain_sequence=AACGAGCAGUAGAAGGCGUGUCUACGGACAUGAGGAUCACCCAUGUUGUGACUCCGAAAGGAGCGCGAGGAUAUACUGCUCAAA category=f
chain_sequence=AGGAUACACCAGAAGGACAUGAGGAUCACCCAUGUAGGAUAUGGGUACGCCGACAUUAGUCUGCUCUCGGUAGACUUUCCUGAU category=f
chain_sequence=CCGGAAACGGGUAGCUGACAUGAGGAUCACCCAUGUGUAUCACAGGAUAUGGAUCCUAAUUGGAUCCAGAAGGGUGUCAGCUAC category=t

Ask | Could you tell me if the measured apparent Kd of ACAUGCAUAGCGAUAUGAUCGAGAGAUCAUGUCGAAAAUUUUAGAAGGACAUGAGGAUCACCCAUGUAGGAUAUGGGAGCAUGA reaches 20 nM or more?
Reply | f

Ask | Is apparent Kd at least 20 nM? Consider UUUUAAUAAUAGAAGGAGGACUUCAUGAGGAUCACCCAUGUGUUAGUACUUAGGAUAUGUAAUAACAUGAGGAUCACCCAUGUC
Reply | t

Ask | Quick check, apparent Kd >= 20 nM? ACACCACAUGAGGAUCACCCAUGUAAAGCGUAGCAAGGAUAUGGGCACGGAUAAUUCCGAUCAGAAGGUGUAACGU
Reply | t

====

apparent Kd overview
tested on: MS2 coat protein; test: apparent Kd, MS2 coat protein; higher = weaker binding; RNA-MaP array; theophylline 2 mM where present; settings: ligand present: theophylline; designed as: OFF switch for theophylline

chain_sequence=ACAUGAGGAUCACCCAUGUUCCUCAUUGAUACCAGUGAAUUUAGACGCCCUUGGCAGCGAGUUUUUUUAUAAGAAGUUUUUUUUU result="1310 nM"
chain_sequence=UGGUUUGUGAUGGAUACCAGCAGAGAAAACGUUUAUCCUAACAUGAGGAUCACCCAUGUAUGCCCUUGGCAGCUGUUGUGGGCUA result="34.9 nM"
chain_sequence=UGACAUUGCUCAGAUACCAGACAUGAGGAUCACCCAUGUACCGAGGUACCCGAAAGGAAUGUCCCUUGGCAGCUGAGCAAUGUCU result="152 nM"
chain_sequence=CUUAUAGUAACUGAUACCAGUGUACUGACAUGAGGAUCACCCAUGUUGGGUUUUGUUGUACACCCUUGGCAGCAGAAUCUAUAAG result="86.6 nM"

Ask | Entry UGACAUUGCUGCGAUACCAGACAUGAGGAUCACCCAUGUACCAAGGUAAAGAAAUAACGUGUCCCUUGGCAGCGCAGCAAUGUCU has what apparent Kd?
Reply | 91.1 nM

Ask | Which value of apparent Kd has been reported for GAUGAACUAUUUGAUACCAGACUACAUGAGGAUCACCCAUGUGAGUUUCGUCCUCUGCCAGUCCCUUGGCAGCAAAUAGUUUAUC in the records?
Reply | 194 nM

====

tested on: MS2 coat protein; experiment: apparent Kd, MS2 coat protein; higher = weaker binding; RNA-MaP array; FMN 200 µM where present; conditions: ligand present: flavin mononucleotide; designed as: OFF switch for flavin mononucleotide
Catalogue of apparent Kd readings, one per entry.
Quick note: give the figure in nM, leave out the unit.

chain_sequence=CAGGUAGACUGAGGAUAUACAGACCUAGUCUAUCUAGGUCAAUUAACCACAUGAGGAUCACCCAUGUAGAAGGCAGUCUGCCUG property_label="apparent Kd" readout_units=nM quantitative_readout=21.4
chain_sequence=CCGGAAAUAGAGGAUAUCGUAUCGGAUACGAUACGAGAAGGCUGUACAUGAGGAUCACCCAUGUGUCCUACCGG property_label="apparent Kd" readout_units=nM quantitative_readout=21.6
chain_sequence=UUGAUGUCAGGAUAUGCUUAAUAUAUUUUAUUAUAAUAUAUACAUGAGGAUCACCCAUGUAGAAGGGACAUUAU property_label="apparent Kd" readout_units=nM quantitative_readout=25.7

Could you now look at the following sequence, please?
Ask | API: value(readout= apparent Kd, system= MS2 coat protein, query= GACGGAUGUAUAGGAUAUGCUGAGGAAUACUCAGCAGAAGGAUACAUGAGGAUCACCCAUGUAAUAAUAAUAAUAAUAACCGUC )
Reply | 27.5

====

tested on: MS2 coat protein; experiment: apparent Kd, MS2 coat protein; higher = weaker binding; RNA-MaP array; FMN 200 µM where present; conditions: designed as: OFF switch for flavin mononucleotide; no ligand
property.label: apparent Kd (nM)
Lab book: enter the figure in nM, no units written.

Solved cases below.
chain_sequence=UUGACGGCAGGAUAUACAUGAGGAUCACCCAUGUAAAUUUUUCGUUUAACUUGAAUGUGUAGAAGGGCCAAAAU quantitative_readout=19.4
chain_sequence=UGUGACAUGAGGAUCACCCAUGUAGAGGAUAUAGAGAUGAUGUUAGAGAAGAAUGUGUAGUAAGACUAGAAGGCUAUGUGUGUA quantitative_readout=32.8
chain_sequence=UCACGGGAUUGAGGAUAUAUAUUAAUUUUUACAAUAGAAGGCAAAUUGUUAGUUUUUUCACUAUACAUGAGGAUCACCCAUGUU quantitative_readout=27.4

Ask | Query: apparent Kd; subject: GUAUCGUGAGGAUAUCAUGAUUGACUUUUGUUUUGUCAGCGUGAGAAGGCACAUGAGGAUCACCCAUGUGAUUA
Reply | 22.3

====

Measured apparent Kd, listed per entry.
tested on: MS2 coat protein; assay: apparent Kd, MS2 coat protein; higher = weaker binding; RNA-MaP array; FMN 200 µM where present; conditions: designed as: OFF switch for flavin mononucleotide; no ligand
The answer is to be given in nM; state only the numeric part.

Reference set (6 entries):
chain_sequence=GAGGAGGUAGGAUAUACGAUAAUAUAGGGUAGAUAUAUAACACAUGAGGAUCACCCAUGUAGAAGGACCAGGAG target_under_test="MS2 coat protein" property_label="apparent Kd" readout_units=nM quantitative_readout=34.4
chain_sequence=AGCCAAGCAGGAUAUGCACGUAAUAACAUGAGGAUCACCCAUGUGACCGAUUUAUGUUCUGCAGAAGGGCUUGGAA target_under_test="MS2 coat protein" property_label="apparent Kd" readout_units=nM quantitative_readout=60.3
chain_sequence=GGUCGCAAGUAAGGAUAUGCAUAUGAAACAUAUGCAGAAGGUACAUGAGGAUCACCCAUGUUAAUGCAAAGCGAAUAAGCGACC target_under_test="MS2 coat protein" property_label="apparent Kd" readout_units=nM quantitative_readout=15.5
chain_sequence=UGAACUAUGUAGAAGGCCCACAUUAAUAUGUAGGGAGGAUAUACAUGAGGAUCACCCAUGUAAAGAGCAAGAGGAUUUAACAGA target_under_test="MS2 coat protein" property_label="apparent Kd" readout_units=nM quantitative_readout=10.3
chain_sequence=GAUUAGUGAGGAUAUAUUUACGAUCCUCAGCUUUAUUCAGGACAUGAGGAUCACCCAUGUAGAAGGCGUUAAUC target_under_test="MS2 coat protein" property_label="apparent Kd" readout_units=nM quantitative_readout=25.8
chain_sequence=GGGUACAGUGAGAAGGUCUGCGGAUUCCUUAACAUGAGGAUCACCCAUGUAGAAGGAUAUCACAGGUAAAGGUCGGCUAACGAU target_under_test="MS2 coat protein" property_label="apparent Kd" readout_units=nM quantitative_readout=5.36

Would you kindly look at the next entry?
Ask | Request the reported apparent Kd associated with UGUAUGGACAGAGGAUAUACGGAUAGGAUCUACUAUCUUCCUUAAAUAACAUGAGGAUCACCCAUGUAGAAGGCUGUCCAUACU
Reply | 19
